- Substrate: O=c1ccn([C@@H]2O[C@H](COP(=O)(O)OP(=O)(O)O[C@H]3O[C@H](CO)[C@H](O)[C@H](O)[C@H]3O)[C@@H](O)[C@H]2O)c(=O)[nH]1
- protocol-notes: galactosyltransferase assay, HPLC-UV
- Format: biochemical, Homo sapiens
- experimental-conditions: apparent, fixed 5 mM 4-MUX, 10 mM MnCl2, 100 mM sodium cacodylate pH 7.0, 37 °C
observation-type: kcat (s⁻¹)
Express the result in s⁻¹ but write the number alone.

Request: Please give the documented kcat of hβ4GalT7 (GST-β4GalT7) (Homo sapiens; H195A) (protein, truncated soluble form lacking the first 60 N-terminal amino acids (transmembrane domain and part of stem), GST fusion (tag kept), pET-41a(+), E. coli BL21(DE3), glutathione-Sepharose purified) VRGQGQETSGPPRACPPEPPPEHWEEDASWGPHRLAVLVPFRERFEELLVFVPHMRRFLSRKKIRHHIYVLNQVDHFRFNRAALINVGFLESSNSTDYIAMHDVDLLPLNEELDYGFPEAGPFHVASPELHPLYAYKTYVGGILLLSKQHYRLCNGMSNRFWGWGREDDEFYRRIKGAGLQLFRPSGITTGYKTFRHLHDPAWRKRDQKRIAAQKQEQFKVDREGGLNTVKYHVASRTALSVGGAPCTVLNIMLDCDKTATPWCTFS
Result: 1.932

New cases:
Request: Please give the documented kcat of hβ4GalT7 (GST-β4GalT7) (Homo sapiens; R270A) (protein, truncated soluble form lacking the first 60 N-terminal amino acids (transmembrane domain and part of stem), GST fusion (tag kept), pET-41a(+), E. coli BL21(DE3), glutathione-Sepharose purified) VRGQGQETSGPPRACPPEPPPEHWEEDASWGPHRLAVLVPFRERFEELLVFVPHMRRFLSRKKIRHHIYVLNQVDHFRFNRAALINVGFLESSNSTDYIAMHDVDLLPLNEELDYGFPEAGPFHVASPELHPLYHYKTYVGGILLLSKQHYRLCNGMSNRFWGWGREDDEFYRRIKGAGLQLFRPSGITTGYKTFRHLHDPAWRKRDQKAIAAQKQEQFKVDREGGLNTVKYHVASRTALSVGGAPCTVLNIMLDCDKTATPWCTFS
Result: 0.773
